test_name: Chemi-Luminescent Nitrogen Detection (CLND) kinetic solubility assay
Type: physicochemical
test_parameters: phosphate buffered saline, pH 7.4; kinetic aqueous solubility by CLND; read-out: Solubility
Non-standard residues stand in square brackets, D forms with d. Residues, ends and D or L forms follow the SMILES beside them. dPhe(4-Cl) = N[C@H](Cc1ccc(Cl)cc1)C(=O)O; NMeV = CN[C@H](C(=O)O)C(C)C; dOrn = NCCC[C@@H](N)C(=O)O

[
  {
    "compound": "CC(C)C[C@@H]1NC(=O)[C@H](Cc2c[nH]c3ccccc23)NC(=O)[C@@H](CCCN)NC(=O)[C@H](CC(N)=O)NC(=O)[C@H](C(C)C)N(C)C(=O)[C@@H](CC(C)C)NC1=O [Compound 22c] (cyclo(L[dL][NMeV]N[dOrn]W))",
    "solubility kinetic at 1 h": "≥ 153 µg/mL"
  },
  {
    "compound": "COc1ccc(C[C@@H]2NC(=O)[C@@H](CCCN)NC(=O)[C@H](CC(N)=O)NC(=O)[C@H](C(C)C)NC(=O)[C@@H](CC(C)C)NC(=O)[C@H](CC(C)C)NC2=O)cc1 [Compound 15c] (cyclo(L[dL]VN[dOrn]Y(Me)))",
    "solubility kinetic at 1 h": "≥ 189 µg/mL"
  },
  {
    "compound": "CC(C)C[C@@H]1NC(=O)[C@H](Cc2c[nH]c3ccccc23)NC(=O)[C@@H](CCCN)NC(=O)[C@H](CC(N)=O)NC(=O)[C@H](C(C)C)NC(=O)[C@@H](Cc2ccc(Cl)cc2)NC1=O [Compound 16c] (cyclo(L[dPhe(4-Cl)]VN[dOrn]W))",
    "solubility kinetic at 1 h": "≥ 192 µg/mL"
  },
  {
    "compound": "CC[C@H](C)[C@@H]1NC(=O)[C@@H](CC(C)C)NC(=O)[C@H](CC(C)C)NC(=O)[C@H](Cc2c[nH]c3ccccc23)NC(=O)[C@@H](CCCN)NC(=O)[C@H](CC(N)=O)NC1=O [Compound 7c] (cyclo(IN[dOrn]WL[dL]))",
    "solubility kinetic at 1 h": "≥ 177 µg/mL"
  }
]

----------
Documented half-life at 0.5 µM across a set of molecules
test_name: Intrinsic clearance (CLint) assay, human liver microsomes
Format: in vitro ADME
test_parameters: human, pooled human liver microsomes, pH 7.4, human liver microsomes; read-out: Microsomal t1/2 Human
Protocol: Pooled mouse and human liver microsomes are purchased from Xenotech. […] Control incubation is included for each compound tested where 0.1 M phosphate buffer pH 7.4 is added instead of NADPH (minus NADPH). […] Quantitative analysis: following protein precipitation, the samples were analyzed using specific LC-MS/MS conditions. Data analysis: from a plot of ln peak area ratio (compound peak area/internal standard peak area) against time, the gradient of the line was determined. […]
Non-standard residues stand in square brackets, D forms with d. Residues, ends and D or L forms follow the SMILES beside them. dPhe(4-Cl) = N[C@H](Cc1ccc(Cl)cc1)C(=O)O; NMeN = CN[C@@H](CC(N)=O)C(=O)O; NMeL = CN[C@@H](CC(C)C)C(=O)O; dNMeL = CN[C@H](CC(C)C)C(=O)O; NMeV = CN[C@H](C(=O)O)C(C)C; dOrn = NCCC[C@@H](N)C(=O)O

[
  {
    "molecule": "CC(C)C[C@@H]1NC(=O)[C@H](C)NC(=O)[C@@H](CCCN)NC(=O)[C@H](CC(N)=O)NC(=O)[C@H](C(C)C)NC(=O)[C@@H](CC(C)C)NC1=O [Compound 3c] (cyclo(AL[dL]VN[dOrn]))",
    "half-life at 0.5 µM": "> 2.31 h"
  },
  {
    "molecule": "CC(C)C[C@@H]1NC(=O)[C@H](Cc2c[nH]c3ccccc23)NC(=O)[C@@H](CCCN)NC(=O)[C@H](C)NC(=O)[C@H](C(C)C)NC(=O)[C@@H](CC(C)C)NC1=O [Compound 4c] (cyclo(A[dOrn]WL[dL]V))",
    "half-life at 0.5 µM": "> 2.31 h"
  },
  {
    "molecule": "CC(C)C[C@@H]1NC(=O)[C@H](Cc2c[nH]c3ccccc23)NC(=O)[C@@H](CCCN)NC(=O)[C@H](CC(N)=O)NC(=O)[C@H](C)NC(=O)[C@@H](CC(C)C)NC1=O [Compound 5c] (cyclo(AN[dOrn]WL[dL]))",
    "half-life at 0.5 µM": "> 2.31 h"
  },
  {
    "molecule": "CC[C@H](C)[C@@H]1NC(=O)[C@H]([C@@H](C)CC)NC(=O)[C@@H](CC(C)C)NC(=O)[C@H](CC(C)C)NC(=O)[C@H](Cc2c[nH]c3ccccc23)NC(=O)[C@@H](CCCN)NC1=O [Compound 12c] (cyclo(II[dOrn]WL[dL]))",
    "half-life at 0.5 µM": "0.155 h"
  },
  {
    "molecule": "COc1ccc(C[C@@H]2NC(=O)[C@@H](CCCN)NC(=O)[C@H](CC(N)=O)NC(=O)[C@H](C(C)C)NC(=O)[C@@H](CC(C)C)NC(=O)[C@H](CC(C)C)NC2=O)cc1 [Compound 15c] (cyclo(L[dL]VN[dOrn]Y(Me)))",
    "half-life at 0.5 µM": "> 2.31 h"
  },
  {
    "molecule": "CC(C)C[C@H]1NC(=O)[C@@H](Cc2ccc(Cl)cc2)NC(=O)[C@H](Cc2c[nH]c3ccccc23)NC(=O)[C@@H](CCCN)NC(=O)[C@H](CC(N)=O)NC(=O)[C@H](C(C)C)NC1=O [Compound 17c] (cyclo(N[dOrn]W[dPhe(4-Cl)][dL]V))",
    "half-life at 0.5 µM": "> 2.31 h"
  },
  {
    "molecule": "CC[C@H](C)[C@@H]1NC(=O)[C@@H](CC(C)C)NC(=O)[C@H](CC(C)C)NC(=O)[C@H](Cc2c[nH]c3ccccc23)NC(=O)[C@@H](CCCNC(=N)N)NC(=O)[C@H](CC(N)=O)NC1=O [Compound 13c] (cyclo(IN[dR]WL[dL]))",
    "half-life at 0.5 µM": "0.123 h"
  },
  {
    "molecule": "CC[C@H](C)[C@@H]1NC(=O)[C@@H](CC(C)C)NC(=O)[C@H](CC(C)C)NC(=O)[C@H](Cc2c[nH]c3ccccc23)NC(=O)[C@@H](CCCN)NC(=O)[C@H](CC(N)=O)NC1=O [Compound 7c] (cyclo(IN[dOrn]WL[dL]))",
    "half-life at 0.5 µM": "0.54 h"
  },
  {
    "molecule": "CC(C)C[C@@H]1NC(=O)[C@H](Cc2c[nH]c3ccccc23)NC(=O)[C@@H](CCCN)NC(=O)[C@H](CC(N)=O)NC(=O)[C@H](C(C)C)N(C)C(=O)[C@@H](CC(C)C)NC1=O [Compound 22c] (cyclo(L[dL][NMeV]N[dOrn]W))",
    "half-life at 0.5 µM": "> 2.31 h"
  },
  {
    "molecule": "CC(C)C[C@H]1NC(=O)[C@H](C)NC(=O)[C@H](Cc2c[nH]c3ccccc23)NC(=O)[C@@H](CCCN)NC(=O)[C@H](CC(N)=O)NC(=O)[C@H](C(C)C)NC1=O [Compound 2c] (cyclo(A[dL]VN[dOrn]W))",
    "half-life at 0.5 µM": "> 2.31 h"
  },
  {
    "molecule": "CC(C)C[C@H]1NC(=O)[C@H](CC(C)C)N(C)C(=O)[C@H](Cc2c[nH]c3ccccc23)NC(=O)[C@@H](CCCN)NC(=O)[C@H](CC(N)=O)N(C)C(=O)[C@H](C(C)C)NC1=O [Compound 23c] (cyclo([NMeL][dL]V[NMeN][dOrn]W))",
    "half-life at 0.5 µM": "0.287 h"
  },
  {
    "molecule": "CC(C)C[C@@H]1NC(=O)[C@H](Cc2c[nH]c3ccccc23)NC(=O)[C@@H](CCCN)NC(=O)[C@H](CC(N)=O)NC(=O)[C@H](C(C)C)NC(=O)[C@@H](C)NC1=O [Compound 6c] (cyclo(L[dA]VN[dOrn]W))",
    "half-life at 0.5 µM": "1.25 h"
  },
  {
    "molecule": "CC(C)C[C@@H]1NC(=O)[C@H](Cc2c[nH]c3ccccc23)NC(=O)[C@@H](CCCN)NC(=O)[C@H](CC(N)=O)N(C)C(=O)[C@H](C(C)C)NC(=O)[C@@H](CC(C)C)N(C)C1=O [Compound 25c] (cyclo(L[dNMeL]V[NMeN][dOrn]W))",
    "half-life at 0.5 µM": "> 2.31 h"
  },
  {
    "molecule": "CC(C)C[C@@H]1NC(=O)[C@@H](CC(C)C)NC(=O)[C@@H](CCCN)NC(=O)[C@H](CC(N)=O)NC(=O)[C@H](C(C)C)NC(=O)[C@H](Cc2c[nH]c3ccccc23)NC1=O [Compound 21c] (cyclo(LWVN[dOrn][dL]))",
    "half-life at 0.5 µM": "> 2.31 h"
  },
  {
    "molecule": "CC(C)C[C@@H]1NC(=O)[C@H](Cc2c[nH]c3ccccc23)NC(=O)[C@@H](CCCN)NC(=O)[C@H](CC(N)=O)NC(=O)[C@H](C(C)C)NC(=O)[C@@H](Cc2ccc(Cl)cc2)NC1=O [Compound 16c] (cyclo(L[dPhe(4-Cl)]VN[dOrn]W))",
    "half-life at 0.5 µM": "< 0.5 h"
  },
  {
    "molecule": "CC[C@H](C)[C@@H]1NC(=O)[C@H](CC(C)C)NC(=O)[C@H](Cc2c[nH]c3ccccc23)NC(=O)[C@@H](CCCN)NC(=O)[C@H](CC(N)=O)NC(=O)[C@H](C(C)C)NC1=O [Compound 20c] (cyclo(IVN[dOrn]WL))",
    "half-life at 0.5 µM": "> 2.31 h"
  }
]
